# test: Inhibition of C-terminal Hexa-histidine-tagged human recombinant IRAP expressed in Sf9 cells using R-AMC as substrate incubated for 15 mins by Michaelis-Menten analysis
recordedEndpoint: pIC50
Keep it numeric: pIC50 is minus log10 of the concentration in mol/L.

Qu. Find the recorded pIC50 belonging to CC(C)C[C@@H](N)[C@H](O)C(=O)N[C@H](C(=O)N[C@H](C(=O)N[C@@H](CC(=O)O)C(=O)O)C(C)C)C(C)C [AMASTATIN] and report it.
Ans. 4.60

====

# targetUnderTest: Aminopeptidase N (Homo sapiens, UniProt P15144)
# Sequence (P15144 whole entry): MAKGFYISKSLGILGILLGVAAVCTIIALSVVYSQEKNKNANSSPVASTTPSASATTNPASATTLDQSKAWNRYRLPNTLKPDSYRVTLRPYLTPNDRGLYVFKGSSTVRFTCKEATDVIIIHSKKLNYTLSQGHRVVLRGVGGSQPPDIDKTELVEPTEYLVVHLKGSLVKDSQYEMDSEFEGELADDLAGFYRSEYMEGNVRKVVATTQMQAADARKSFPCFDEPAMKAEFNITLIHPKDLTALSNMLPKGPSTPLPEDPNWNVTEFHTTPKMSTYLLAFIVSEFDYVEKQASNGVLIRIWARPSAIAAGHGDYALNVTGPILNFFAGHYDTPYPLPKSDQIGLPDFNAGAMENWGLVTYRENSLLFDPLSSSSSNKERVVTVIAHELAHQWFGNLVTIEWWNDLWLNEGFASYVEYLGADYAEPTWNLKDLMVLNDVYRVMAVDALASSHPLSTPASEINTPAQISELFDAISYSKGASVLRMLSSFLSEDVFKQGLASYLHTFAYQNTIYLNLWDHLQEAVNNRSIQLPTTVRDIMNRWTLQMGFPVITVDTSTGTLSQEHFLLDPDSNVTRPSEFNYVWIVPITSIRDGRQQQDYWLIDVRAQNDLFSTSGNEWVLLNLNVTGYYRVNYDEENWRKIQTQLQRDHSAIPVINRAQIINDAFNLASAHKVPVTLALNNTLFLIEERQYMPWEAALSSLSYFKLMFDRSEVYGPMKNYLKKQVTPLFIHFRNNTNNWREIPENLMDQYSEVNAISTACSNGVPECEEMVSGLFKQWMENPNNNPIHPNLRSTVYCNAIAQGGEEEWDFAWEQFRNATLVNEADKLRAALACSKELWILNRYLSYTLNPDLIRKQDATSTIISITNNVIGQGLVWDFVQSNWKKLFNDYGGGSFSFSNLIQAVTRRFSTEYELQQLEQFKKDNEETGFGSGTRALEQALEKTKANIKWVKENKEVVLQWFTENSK
# test: Inhibition of FLAG-tagged human recombinant Aminopeptidase N
Reported IC50 by item:
Only the number, expressed in µM, is required.

> print(dat)
           compound                           targetundertest  recordedendpoint  observed
1  CC(C)C[C@H](N)CS  Aminopeptidase N (Homo sapiens, UniProt P15144)              IC50     0.008

Alright, here's another compound for you.
Qu. # query: IC50 of entry CC(C)C[C@@H](C(=O)N[C@H](C(=O)OC1CCCC1)c1ccccc1)[C@H](O)C(=O)NO [TOSEDOSTAT]
Ans. 0.03

====

# targetUnderTest: Endoplasmic reticulum aminopeptidase 1 (Homo sapiens)
# test: Inhibition of ERAP1 (unknown origin) using L-AMC as substrate
recordedEndpoint: IC50

Example results:
> print(dat)
                                  structure                           targetundertest  observed
1  O=C(NO)[C@H](Cc1ccc(Oc2ccccc2)cc1)n1cc(CNS(=O)(=O)c2ccc(-c3ccccn3)s2)nn1  Endoplasmic reticulum aminopeptidase 1 (Homo sapiens)  > 100 µM
2  COc1ccc(C[C@@H](C(=O)NO)n2cc(CNS(=O)(=O)c3ccc(-c4ccccc4)s3)nn2)cc1  Endoplasmic reticulum aminopeptidase 1 (Homo sapiens)  > 100 µM

Turning now to a further compound:
Qu. Returns the measured IC50 for the input compound. Input: `O=C(C[C@H](Cc1ccc(O)cc1)n1nncc1CNS(=O)(=O)c1ccc(-c2ccccn2)s1)NO`
Ans. > 100 µM

====

# targetUnderTest: Cytosol aminopeptidase (Homo sapiens, UniProt P28838)
# Sequence (P28838 whole entry): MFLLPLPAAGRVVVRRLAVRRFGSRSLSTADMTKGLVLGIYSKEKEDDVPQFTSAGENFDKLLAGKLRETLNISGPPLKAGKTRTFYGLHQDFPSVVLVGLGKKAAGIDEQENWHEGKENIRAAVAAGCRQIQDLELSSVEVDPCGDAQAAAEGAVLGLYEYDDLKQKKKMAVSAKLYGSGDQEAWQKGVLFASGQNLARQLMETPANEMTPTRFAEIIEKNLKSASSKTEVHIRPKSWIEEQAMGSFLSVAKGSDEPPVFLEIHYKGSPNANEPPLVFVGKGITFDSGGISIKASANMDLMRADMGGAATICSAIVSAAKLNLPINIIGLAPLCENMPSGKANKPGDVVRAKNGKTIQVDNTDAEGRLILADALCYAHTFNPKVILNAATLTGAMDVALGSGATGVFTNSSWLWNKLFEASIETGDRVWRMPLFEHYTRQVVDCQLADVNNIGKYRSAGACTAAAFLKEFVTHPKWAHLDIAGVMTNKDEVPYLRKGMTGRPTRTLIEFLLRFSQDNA
# test: Inhibition of human recombinant Leucine aminopeptidase 3
recordedEndpoint: IC50 (nM)
Response body: numeric value in nM, unit text excluded.

Qu. IC50 lookup needed for `CC(C)C[C@@H](C(=O)N[C@H](C(=O)OC1CCCC1)c1ccccc1)[C@H](O)C(=O)NO` , thanks.
Ans. 5

====

# targetUnderTest: Endoplasmic reticulum aminopeptidase 1 (Homo sapiens, UniProt Q9NZ08)
# Sequence (Q9NZ08 whole entry): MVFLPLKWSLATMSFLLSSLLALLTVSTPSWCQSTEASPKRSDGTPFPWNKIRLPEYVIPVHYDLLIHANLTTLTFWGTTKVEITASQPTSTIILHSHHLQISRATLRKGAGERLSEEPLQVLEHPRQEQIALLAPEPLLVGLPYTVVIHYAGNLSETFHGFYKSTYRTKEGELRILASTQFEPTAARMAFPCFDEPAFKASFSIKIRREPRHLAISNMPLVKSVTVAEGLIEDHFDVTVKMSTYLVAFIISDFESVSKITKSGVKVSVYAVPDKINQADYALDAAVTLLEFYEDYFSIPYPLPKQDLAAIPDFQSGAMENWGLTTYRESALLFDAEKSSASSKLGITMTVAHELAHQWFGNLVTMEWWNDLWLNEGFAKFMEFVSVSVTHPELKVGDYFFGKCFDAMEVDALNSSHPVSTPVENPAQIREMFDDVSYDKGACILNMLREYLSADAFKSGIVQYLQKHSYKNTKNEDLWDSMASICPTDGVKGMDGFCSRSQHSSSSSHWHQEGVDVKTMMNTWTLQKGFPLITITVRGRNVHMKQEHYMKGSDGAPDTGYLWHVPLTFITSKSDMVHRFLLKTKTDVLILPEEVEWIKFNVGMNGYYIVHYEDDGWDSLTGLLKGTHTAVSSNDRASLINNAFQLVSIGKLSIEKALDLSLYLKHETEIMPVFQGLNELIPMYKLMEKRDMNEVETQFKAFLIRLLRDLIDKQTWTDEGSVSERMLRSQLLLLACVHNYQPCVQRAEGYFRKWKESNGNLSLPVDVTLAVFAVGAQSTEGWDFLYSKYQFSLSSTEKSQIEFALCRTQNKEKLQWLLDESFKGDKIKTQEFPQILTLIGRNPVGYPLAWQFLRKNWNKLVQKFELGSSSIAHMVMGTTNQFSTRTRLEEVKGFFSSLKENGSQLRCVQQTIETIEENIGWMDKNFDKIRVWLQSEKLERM
# test: Inhibition of C-terminal Hexa-histidine-tagged human recombinant ERAP1 expressed in Sf9 cells using L-AMC as substrate incubated for 15 mins by Michaelis-Menten analysis
Measured IC50 by item
Give your result in µM as a bare value.

For orientation, consider the following solved cases.
> print(dat)
                                  structure                           targetundertest   u  observed
1  CC(C)C[C@H](NC(=O)[C@@H](O)[C@H](N)Cc1ccccc1)C(=O)O  Endoplasmic reticulum aminopeptidase 1 (Homo sapiens, UniProt Q9NZ08)  µM        11
2                          CC(C)C[C@H](N)CS  Endoplasmic reticulum aminopeptidase 1 (Homo sapiens, UniProt Q9NZ08)  µM      0.11
3  CC(C)C[C@@H](C(=O)N[C@H](C(=O)OC1CCCC1)c1ccccc1)[C@H](O)C(=O)NO  Endoplasmic reticulum aminopeptidase 1 (Homo sapiens, UniProt Q9NZ08)  µM        18

Please look at the following compound next.
Qu. Fill blank: measured IC50 of the compound `CC(C)C[C@@H](N)[C@H](O)C(=O)N[C@H](C(=O)N[C@H](C(=O)N[C@@H](CC(=O)O)C(=O)O)C(C)C)C(C)C` is ____.
Ans. 22
